measurement-protocol: PK of voruciclib, 2 weeks of daily dosing followed by 1 week without dosing in a 21-day cycle (Table 3)
Format: in vivo, human
condition-parameters: human, plasma, oral, 850 mg, Day 1, 2 weeks daily dosing/1 week off, mean; read-out: AUC0-t
reported-endpoint: AUC(0-t) (ng·h/mL)
Report the figure in ng·h/mL without appending any unit label.

Provide measured AUC(0-t) value, entry: CN1CC[C@@H](c2c(O)cc(O)c3c(=O)cc(-c4ccc(C(F)(F)F)cc4Cl)oc23)[C@@H]1CO 31400

---

measurement-protocol: PK of voruciclib, 2 weeks of daily dosing followed by 1 week without dosing in a 21-day cycle (Table 3)
Format: in vivo, human
condition-parameters: human, plasma, oral, 150 mg, Day 13, 2 weeks daily dosing/1 week off, mean; read-out: Vz/F
reported-endpoint: Vd/F (L)
# value in L; strip the unit string

Answer with reported Vd/F of CN1CC[C@@H](c2c(O)cc(O)c3c(=O)cc(-c4ccc(C(F)(F)F)cc4Cl)oc23)[C@@H]1CO 459

# credit: patent US20240016781A1
